# Protocol Details: Partition coefficient (logP) (heptane)
# Recorded Conditions: heptane/water
Assay Metric: logP

Study these solved cases before continuing.
What logP value was documented for this compound, "CNC(=O)[C@@H](Cc1ccccc1)NC(=O)[C@H](NC(C)=O)C(C)C" ?
-5.33

What logP value was documented for this compound, "CC(=O)N[C@H](Cc1ccccc1)C(=O)NCCc1ccccc1" ?
-2

What logP value was documented for this compound, "CC(=O)N[C@@H](C(=O)NCCc1ccccc1)C(C)C" ?
-2.64

(a) CC(=O)NCC(=O)NCCc1ccccc1
(b) CC(=O)N[C@H](CC1CCCCC1)C(=O)NCCc1ccccc1
Parameter metric = logP. Return the lower-valued option from a and b . Indicate which entry you chose by stating its label.
a
(a: -3.73, b: -0.9)

----------
# Protocol Details: Partition coefficient (logP) (heptane/glycol)
# Recorded Conditions: heptane/ethylene glycol
Assay Metric: logP

Study these solved cases before continuing.
What logP value was documented for this molecule, "CC(=O)N[C@@H](C(=O)NCCc1ccccc1)C(C)C" ?
-3.77

What logP value was documented for this molecule, "CC(=O)N[C@H](Cc1ccccc1)C(=O)NCCc1ccccc1" ?
-3.7

What logP value was documented for this molecule, "CNC(=O)[C@@H](Cc1ccccc1)NC(=O)[C@H](NC(C)=O)C(C)C" ?
-5.79

(I) CC(=O)NCC(=O)NCCc1ccccc1
(II) CC(=O)N[C@H](CC1CCCCC1)C(=O)NCCc1ccccc1
// compare measured logP, left I , right II , return larger Indicate which entry you chose by stating its label.
II
(II: -3.41, I: -5)
